- System tested: Ras-related C3 botulinum toxin substrate 1/T-lymphoma invasion and metastasis-inducing protein 1 (Homo sapiens, UniProt P63000+Q13009)
- Test description: Inhibition of Rac1-Tiam1 interaction in human smooth muscle cells assessed as reduction of PDGF-BB stimulated GTP bound Rac1 level at 10 uM preincubated for 4 hrs followed by PDGF-BB stimulation measured after 2 mins by G-LISA assay relative to control
- Format: cell-based
Active and inactive are the calls of the source. The calls are words filed in the database; no cut-off is given here.
Property measured: inhibition

Please review the following examples before continuing.
Report inhibition for CCOC(=O)[C@]1(N)[C@@H]2C[C@@H](C[C@H]2c2cccc(Nc3ccc(N)cc3)c2)[C@@H]1Sc1ccccc1 (relative stereo)
75%

Report inhibition for CCOC(=O)[C@]1(N)[C@@H]2C[C@@H](C[C@H]2c2cccc(Nc3ccc(N)cc3)c2)[C@H]1Sc1ccccc1 (relative stereo)
Active

Report inhibition for CCOC(=O)[C@]1(N)[C@@H]2C[C@@H]([C@@H](c3cccc(Nc4ccc(N)cc4)c3)C2)[C@@H]1Sc1ccccc1 (relative stereo)
Active

Report inhibition for CCOC(=O)[C@]1(N)[C@@H]2C[C@@H]([C@@H](c3cccc(Nc4ccc(N)cc4)c3)C2)[C@H]1Sc1ccccc1 (relative stereo)
Active

Report inhibition for CCOC(=O)[C@@]1(N)[C@@H]2C[C@@H](C[C@H]2c2cccc(Nc3ccc(N)cc3)c2)[C@@H]1Sc1ccccc1 (relative stereo)
Active

Consider now this further molecule.
Report inhibition for CCOC(=O)[C@@]1(N)[C@@H]2C[C@@H]([C@@H](c3cccc(Nc4ccc(N)cc4)c3)C2)[C@@H]1Sc1ccccc1 (relative stereo)
Active
